# test.description: in vitro
# condition: human, plasma
*1 amine or outer side, *2 acyl side, *3 side chain or, on linkers, in order; H or OH if unused. Where a SMILES comes first, the peptide text is derived from it. [ ]: non-standard residue; d: D form. Phe(4-Br) = N[C@@H](Cc1ccc(Br)cc1)C(=O)O; X1 = N=C(N)NCCCN(N[*:1])C(=O)[*:2]; αMeR = C[C@](N)(CCCNC(=N)N)C(=O)O; NMeL = CN[C@@H](CC(C)C)C(=O)O; pGlu = O=C1CC[C@@H](C(=O)O)N1; αMeL = CC(C)C[C@](C)(N)C(=O)O; Nle = CCCC[C@H](N)C(=O)O; Aib = CC(C)(N)C(=O)O
property.measured: remaining at 1 h, 80 µM (%)
Quick reminder: number only, in %, skip the unit.

Give remaining at 1 h, 80 µM for CCCC[C@H](NC(=O)[C@@H]1CCCN1C(=O)CNC(=O)[C@H](CCCCN)NC(=O)[C@H](Cc1c[nH]cn1)NC(=O)[C@H](CO)NC(=O)[C@H](CC(C)C)N(C)C(=O)[C@H](CCCNC(=N)N)NC(=O)[C@@H]1CCCN1C(=O)[C@H](CCCNC(=N)N)NC(=O)[C@@H]1CCC(=O)N1)C(=O)NC(C)(C)C(=O)N[C@@H](Cc1ccc(Br)cc1)C(=O)O [Peptide 10] ([pGlu]RPR[NMeL]SHKGP[Nle][Aib][Phe(4-Br)]-OH; C-terminus assumed)
59

Supply remaining at 1 h, 80 µM value. Item: CCCC[C@H](NC(=O)[C@@H]1CCCN1C(=O)CNC(=O)[C@H](CCCCN)NC(=O)[C@H](Cc1c[nH]cn1)NC(=O)[C@H](CO)NC(=O)[C@](C)(CC(C)C)NC(=O)[C@H](CCCNC(=N)N)NC(=O)[C@@H]1CCCN1C(=O)[C@H](CCCNC(=N)N)NC(=O)[C@@H]1CCC(=O)N1)C(=O)NC(C)(C)C(=O)N[C@@H](Cc1ccc(Br)cc1)C(=O)O [Peptide 14] ([pGlu]RPR[αMeL]SHKGP[Nle][Aib][Phe(4-Br)]-OH; C-terminus assumed)
38

Supply measured remaining at 1 h, 80 µM of CCCC[C@H](NC(=O)[C@@H]1CCCN1C(=O)CNC(=O)[C@H](CCCCN)NC(=O)[C@H](Cc1c[nH]cn1)NC(=O)[C@H](CO)NC(=O)[C@H](CC(C)C)NC(=O)N(CCCNC(=N)N)NC(=O)[C@@H]1CCCN1C(=O)[C@H](CCCNC(=N)N)NC(=O)[C@@H]1CCC(=O)N1)C(=O)NC(C)(C)C(=O)N[C@@H](Cc1ccc(Br)cc1)C(=O)O [Peptide 16] ([pGlu]RP[X1]LSHKGP[Nle][Aib][Phe(4-Br)]-OH; C-terminus assumed) in your reply.
57

Give recorded remaining at 1 h, 80 µM. CCCC[C@H](NC(=O)[C@@H]1CCCN1C(=O)CNC(=O)[C@H](CCCCN)NC(=O)[C@H](Cc1c[nH]cn1)NC(=O)[C@H](CO)NC(=O)[C@@H](CC(C)C)NC(=O)[C@H](CCCNC(=N)N)NC(=O)[C@@H]1CCCN1C(=O)[C@H](CCCNC(=N)N)NC(=O)[C@@H]1CCC(=O)N1)C(=O)NC(C)(C)C(=O)N[C@@H](Cc1ccc(Br)cc1)C(=O)O [Peptide 8] ([pGlu]RPR[dL]SHKGP[Nle][Aib][Phe(4-Br)]-OH; C-terminus assumed)
22

Provide one value: measured remaining at 1 h, 80 µM of CCCC[C@H](NC(=O)[C@@H]1CCCN1C(=O)CNC(=O)[C@H](CCCCN)NC(=O)[C@H](Cc1c[nH]cn1)NC(=O)[C@H](CO)NC(=O)[C@H](CC(C)C)NC(=O)[C@](C)(CCCNC(=N)N)NC(=O)[C@@H]1CCCN1C(=O)[C@H](CCCNC(=N)N)NC(=O)[C@@H]1CCC(=O)N1)C(=O)NC(C)(C)C(=O)N[C@@H](Cc1ccc(Br)cc1)C(=O)O [Peptide 12] ([pGlu]RP[αMeR]LSHKGP[Nle][Aib][Phe(4-Br)]-OH; C-terminus assumed)
62

State its remaining at 1 h, 80 µM: CCCC[C@H](NC(=O)[C@@H]1CCCN1C(=O)CNC(=O)[C@H](CCCCN)NC(=O)[C@H](Cc1c[nH]cn1)NC(=O)[C@H](CO)NC(=O)[C@H](CC(C)C)NC(=O)[C@H](CCCNC(=N)N)NC(=O)[C@@H]1CCCN1C(=O)[C@H](CCCNC(=N)N)NC(=O)[C@@H]1CCC(=O)N1)C(=O)NC(C)(C)C(=O)N[C@@H](Cc1ccc(Br)cc1)C(=O)O [Peptide 4] ([pGlu]RPRLSHKGP[Nle][Aib][Phe(4-Br)]-OH; C-terminus assumed)
65

* * *

# test.description: in vitro
# condition: human, plasma
*1 amine or outer side, *2 acyl side, *3 side chain or, on linkers, in order; H or OH if unused. Where a SMILES comes first, the peptide text is derived from it. [ ]: non-standard residue; d: D form. Phe(4-Br) = N[C@@H](Cc1ccc(Br)cc1)C(=O)O; azaLeu = CC(C)CN(N[*:1])C(=O)[*:2]; pGlu = O=C1CC[C@@H](C(=O)O)N1; Nle = CCCC[C@H](N)C(=O)O; Aib = CC(C)(N)C(=O)O
property.measured: remaining at 1 h, 80 µM (%)
Enter your answer as a number in %; do not include the unit.

Identify remaining at 1 h, 80 µM associated with the compound CCCC[C@H](NC(=O)[C@@H]1CCCN1C(=O)CNC(=O)[C@H](CCCCN)NC(=O)[C@H](Cc1c[nH]cn1)NC(=O)[C@H](CO)NC(=O)N(CC(C)C)NC(=O)[C@H](CCCNC(=N)N)NC(=O)[C@@H]1CCCN1C(=O)[C@H](CCCNC(=N)N)NC(=O)[C@@H]1CCC(=O)N1)C(=O)NC(C)(C)C(=O)N[C@@H](Cc1ccc(Br)cc1)C(=O)O [Peptide 18] ([pGlu]RPR[azaLeu]SHKGP[Nle][Aib][Phe(4-Br)]-OH; C-terminus assumed)
2

* * *

# test.description: In vitro peptide stability in human blood plasma (RP-HPLC)
# condition: human blood plasma
property.measured: remaining at 0.5 h, 80 µM (%)
Express the result in % but write the number alone.

Note remaining at 0.5 h, 80 µM for the molecule shown: CSCC[C@H](NC(=O)[C@@H]1CCCN1C(=O)CNC(=O)[C@H](CCCCN)NC(=O)[C@H](Cc1cnc[nH]1)NC(=O)[C@H](CO)NC(=O)[C@H](CC(C)C)NC(=O)[C@H](CCCNC(=N)N)NC(=O)[C@@H]1CCCN1C(=O)[C@H](CCCNC(=N)N)NC(=O)[C@H](CCC(N)=O)NC(=O)[C@H](CCCNC(=N)N)NC(=O)[C@H](CCCNC(=N)N)NC(=O)[C@H](Cc1ccccc1)NC(=O)[C@@H](N)CCCCN)C(=O)N1CCC[C@H]1C(=O)N[C@@H](Cc1ccccc1)C(=O)O [Peptide 2, reference compound]
51

* * *

# Test system: recombinant human neprilysin (rhNEP, Sino Biological)
# test.description: rhNEP diluted in Tris buffer (100 mM Tris, 100 mM NaCl, 10 μM ZnCl2, pH 7.5), 3.1 nM final concentration
# condition: 37° C., up to 72 h
property.measured: cleaved bond

Lys-Phe-Arg-Arg-Gln-Arg-Pro-Arg-αMeLeu-Ser-His-Lys-Gly-Pro-Nle-Aib-paraBrPhe : Nle15-Aib16, minor
Lys-Phe-Arg-Arg-Gln-Arg-Pro-azaArg-Leu-Ser-His-Lys-Gly-Pro-Nle-Aib-paraBrPhe : Nle15-Aib16, minor
Lys-Phe-Arg-Arg-Gln-Arg-Pro-Arg-azaLeu-Ser-His-Lys-Gly-Pro-Nle-Aib-paraBrPhe : Nle15-Aib16, minor

* * *

# test.description: in vitro
# condition: human, plasma
*1 amine or outer side, *2 acyl side, *3 side chain or, on linkers, in order; H or OH if unused. Where a SMILES comes first, the peptide text is derived from it. [ ]: non-standard residue; d: D form. Phe(4-Br) = N[C@@H](Cc1ccc(Br)cc1)C(=O)O; X1 = N=C(N)NCCCN(N[*:1])C(=O)[*:2]; azaLeu = CC(C)CN(N[*:1])C(=O)[*:2]; NMeL = CN[C@@H](CC(C)C)C(=O)O; pGlu = O=C1CC[C@@H](C(=O)O)N1; αMeL = CC(C)C[C@](C)(N)C(=O)O; Nle = CCCC[C@H](N)C(=O)O; Aib = CC(C)(N)C(=O)O
property.measured: remaining at 0.5 h, 80 µM (%)
Form entry: value (%) — number only.

Please give the documented remaining at 0.5 h, 80 µM of CCCC[C@H](NC(=O)[C@@H]1CCCN1C(=O)CNC(=O)[C@H](CCCCN)NC(=O)[C@H](Cc1c[nH]cn1)NC(=O)[C@H](CO)NC(=O)[C@](C)(CC(C)C)NC(=O)[C@H](CCCNC(=N)N)NC(=O)[C@@H]1CCCN1C(=O)[C@H](CCCNC(=N)N)NC(=O)[C@@H]1CCC(=O)N1)C(=O)NC(C)(C)C(=O)N[C@@H](Cc1ccc(Br)cc1)C(=O)O [Peptide 14] ([pGlu]RPR[αMeL]SHKGP[Nle][Aib][Phe(4-Br)]-OH; C-terminus assumed)
45

Report remaining at 0.5 h, 80 µM for CCCC[C@H](NC(=O)[C@@H]1CCCN1C(=O)CNC(=O)[C@H](CCCCN)NC(=O)[C@H](Cc1c[nH]cn1)NC(=O)[C@H](CO)NC(=O)[C@@H](CC(C)C)NC(=O)[C@H](CCCNC(=N)N)NC(=O)[C@@H]1CCCN1C(=O)[C@H](CCCNC(=N)N)NC(=O)[C@@H]1CCC(=O)N1)C(=O)NC(C)(C)C(=O)N[C@@H](Cc1ccc(Br)cc1)C(=O)O [Peptide 8] ([pGlu]RPR[dL]SHKGP[Nle][Aib][Phe(4-Br)]-OH; C-terminus assumed)
32

Output remaining at 0.5 h, 80 µM of CCCC[C@H](NC(=O)[C@@H]1CCCN1C(=O)CNC(=O)[C@H](CCCCN)NC(=O)[C@H](Cc1c[nH]cn1)NC(=O)[C@H](CO)NC(=O)N(CC(C)C)NC(=O)[C@H](CCCNC(=N)N)NC(=O)[C@@H]1CCCN1C(=O)[C@H](CCCNC(=N)N)NC(=O)[C@@H]1CCC(=O)N1)C(=O)NC(C)(C)C(=O)N[C@@H](Cc1ccc(Br)cc1)C(=O)O [Peptide 18] ([pGlu]RPR[azaLeu]SHKGP[Nle][Aib][Phe(4-Br)]-OH; C-terminus assumed)
19

Supply measured remaining at 0.5 h, 80 µM of CCCC[C@H](NC(=O)[C@@H]1CCCN1C(=O)CNC(=O)[C@H](CCCCN)NC(=O)[C@H](Cc1c[nH]cn1)NC(=O)[C@H](CO)NC(=O)[C@H](CC(C)C)NC(=O)N(CCCNC(=N)N)NC(=O)[C@@H]1CCCN1C(=O)[C@H](CCCNC(=N)N)NC(=O)[C@@H]1CCC(=O)N1)C(=O)NC(C)(C)C(=O)N[C@@H](Cc1ccc(Br)cc1)C(=O)O [Peptide 16] ([pGlu]RP[X1]LSHKGP[Nle][Aib][Phe(4-Br)]-OH; C-terminus assumed) in your reply.
83

For the molecule CCCC[C@H](NC(=O)[C@@H]1CCCN1C(=O)CNC(=O)[C@H](CCCCN)NC(=O)[C@H](Cc1c[nH]cn1)NC(=O)[C@H](CO)NC(=O)[C@H](CC(C)C)NC(=O)[C@H](CCCNC(=N)N)NC(=O)[C@@H]1CCCN1C(=O)[C@H](CCCNC(=N)N)NC(=O)[C@@H]1CCC(=O)N1)C(=O)NC(C)(C)C(=O)N[C@@H](Cc1ccc(Br)cc1)C(=O)O [Peptide 4] ([pGlu]RPRLSHKGP[Nle][Aib][Phe(4-Br)]-OH; C-terminus assumed) , report remaining at 0.5 h, 80 µM.
77

Tell me remaining at 0.5 h, 80 µM reported for CCCC[C@H](NC(=O)[C@@H]1CCCN1C(=O)CNC(=O)[C@H](CCCCN)NC(=O)[C@H](Cc1c[nH]cn1)NC(=O)[C@H](CO)NC(=O)[C@H](CC(C)C)N(C)C(=O)[C@H](CCCNC(=N)N)NC(=O)[C@@H]1CCCN1C(=O)[C@H](CCCNC(=N)N)NC(=O)[C@@H]1CCC(=O)N1)C(=O)NC(C)(C)C(=O)N[C@@H](Cc1ccc(Br)cc1)C(=O)O [Peptide 10] ([pGlu]RPR[NMeL]SHKGP[Nle][Aib][Phe(4-Br)]-OH; C-terminus assumed)
77
